- target_or_test_system: BRD4 (Homo sapiens)
- Construct: purchased in-house DSF panel (SGC Frankfurt)
- experiment_notes: DSF
- Type: binding
Kindly supply the reported ΔTm BRD4 values for the records listed here.
Reply with just the number (in °C).

Lookup: ΔTm BRD4 of COC(=O)c1cc(Nc2ccnc(NCCOCCNC(=O)OC(C)(C)C)n2)[nH]n1 [21d] on BRD4 (Homo sapiens)?
Found: 0.7

Lookup: What measured ΔTm BRD4 is associated with COC(=O)c1cc(Nc2ccnc(NCc3ccc(NC(=O)OC(C)(C)C)cc3)n2)[nH]n1 [21i] on BRD4 (Homo sapiens)?
Found: 1.0

Lookup: For the record CC(C)OC(=O)c1cc(Nc2ccnc(NCc3ccc(NC(=O)OC(C)(C)C)cc3)n2)n[nH]1 [42d] , what value of ΔTm BRD4 is listed for BRD4 (Homo sapiens)?
Found: -2.1

Lookup: API: value(readout= ΔTm BRD4, system= BRD4 (Homo sapiens), query= N#CCc1ccc(Nc2nccc(Nc3cc(C4CC4)[nH]n3)n2)cc1 [compound 1, reference compound] )
Found: 1.3

Lookup: Provide value of ΔTm BRD4 for this record tested with BRD4 (Homo sapiens): CC(C)(C)OC(=O)Nc1ccc(CNc2nccc(Nc3cc(C(=O)OC(C)(C)C)[nH]n3)n2)cc1 [43d]
Found: -1.5

Data origin: paper PMC9736855
